In this section we review reported LD50 at 2 weeks values for a set of compounds.
# Assay procedure: in vivo
# Measurement parameters: both, Kunming, mouse, in vivo, ip

Compound	Result units	LD50 at 2 weeks
Cc1nccc2c3ccc(OC(C)C)cc3n(CCCCCCCCCn3c4cc(OC(C)C)ccc4c4ccnc(C)c43)c12 [Compound 26]	mg/kg	200
COc1ccc2c3ccnc(C)c3n(CCCCCCCn3c4cc(OC)ccc4c4ccnc(C)c43)c2c1 [Compound 17]	mg/kg	200
Cc1nccc2c3ccccc3n(CCCCCCCCn3c4ccccc4c4ccnc(C)c43)c12 [Compound 11]	mg/kg	200
Cc1nccc2c3cc(Br)ccc3n(CCCCCCn3c4ccc(Br)cc4c4ccnc(C)c43)c12 [Compound 22]	mg/kg	200
c1ccc2c(c1)c1ccncc1n2CCCCn1c2ccccc2c2ccncc21 [Compound 1, 1,4-bis(β-carboline-9-yl) butane]	mg/kg	200
Cc1nccc2c3ccccc3n(CCCCCCn3c4ccccc4c4ccnc(C)c43)c12 [Compound 9]	mg/kg	200
c1ccc2c(c1)c1ccnc(-c3ccsc3)c1n2CCCCCCCCn1c2ccccc2c2ccnc(-c3ccsc3)c21 [Compound 34]	mg/kg	250
Cc1nccc2c3ccccc3n(CCCCn3c4ccccc4c4ccnc(C)c43)c12 [Compound 7]	mg/kg	200
COc1ccc2c3ccnc(C)c3n(CCCCn3c4cc(OC)ccc4c4ccnc(C)c43)c2c1 [Compound 14]	mg/kg	50

====

Compound	melting point
Cc1nccc2c3ccccc3n(CCCCCCCCCn3c4ccccc4c4ccnc(C)c43)c12	155 to 156 °C
COc1ccc2c3ccnc(C)c3n(CCCCCn3c4cc(OC)ccc4c4ccnc(C)c43)c2c1	180 to 181 °C
Cc1nccc2c3ccccc3n(CCCCCCCn3c4ccccc4c4ccnc(C)c43)c12	189 to 190 °C
Cc1nccc2c3ccccc3n(CCCn3c4ccccc4c4ccnc(C)c43)c12	239 to 240 °C
Cc1nccc2c3cc(Br)ccc3n(CCCCC(C)n3c4ccc(Br)cc4c4ccnc(C)c43)c12 (stereo not drawn)	208 to 209 °C
Cc1nccc2c3ccccc3n(CCCCCCCCCCn3c4ccccc4c4ccnc(C)c43)c12	152 to 154 °C
c1ccc2c(c1)c1ccncc1n2CCCCCCCCn1c2ccccc2c2ccncc21	180 to 181 °C
Cc1nccc2c3ccccc3n(CCCCCn3c4ccccc4c4ccnc(C)c43)c12	213 to 214 °C
c1ccc2c(c1)c1ccnc(-c3ccsc3)c1n2CCCCCCn1c2ccccc2c2ccnc(-c3ccsc3)c21	198 to 199 °C
CCCCOc1ccc2c3ccnc(C)c3n(CCCCn3c4cc(OCCCC)ccc4c4ccnc(C)c43)c2c1	193 to 194 °C
c1cncc(-c2nccc3c4ccccc4n(CCCCn4c5ccccc5c5ccnc(-c6cccnc6)c54)c23)c1	224 to 225 °C
CC(C)c1nccc2c3ccccc3n(CCCCCCn3c4ccccc4c4ccnc(C(C)C)c43)c12	241 to 242 °C

====

# Tested on: KB (human oral epidermoid carcinoma cells)
# Assay procedure: Antitumor screening in vitro, MTT assay, KB
# Format: cell-based
# Measurement parameters: Homo sapiens, 48 hours
Reported metric: log10(IC50) (log10 of the value in µM)

Compound	log10(IC50)
Cc1nccc2c3ccc(OC(C)C)cc3n(CCCCCCCCCn3c4cc(OC(C)C)ccc4c4ccnc(C)c43)c12 [Compound 26]	2.05
Cc1nccc2c3ccccc3n(CCCCn3c4ccccc4c4ccnc(C)c43)c12 [Compound 7]	0.81
Cc1nccc2c3ccccc3n(CCCn3c4ccccc4c4ccnc(C)c43)c12 [Compound 6]	2.20
COc1ccc2c3ccnc(C)c3n(CCCCCn3c4cc(OC)ccc4c4ccnc(C)c43)c2c1 [Compound 15]	0.70
c1ccc2c(c1)c1ccncc1n2CCCCCCn1c2ccccc2c2ccncc21 [Compound 3, 1,6-bis(β-carboline-9-yl) hexane]	1.14
COc1ccc2c3ccnc(C)c3n(CCCCn3c4cc(OC)ccc4c4ccnc(C)c43)c2c1 [Compound 14]	0.45
COc1ccc2c3ccnc(C)c3n(CCCCCCCC(C)n3c4cc(OC)ccc4c4ccnc(C)c43)c2c1 (stereo not drawn) [Compound 18]	1.59
Cc1nccc2c3ccccc3n(CCCCCCCn3c4ccccc4c4ccnc(C)c43)c12 [Compound 10]	1.94
CCCCOc1ccc2c3ccnc(C)c3n(CCCCn3c4cc(OCCCC)ccc4c4ccnc(C)c43)c2c1 [Compound 23]	0.83

====

# Test system: KB (human oral epidermoid carcinoma cells)
# Assay procedure: Antitumor screening in vitro, MTT assay, KB
# Format: cell-based
# Measurement parameters: Homo sapiens, 48 hours
Reported metric: IC50

Compound	Test target	Reported metric	Obs value
c1cncc(-c2nccc3c4ccccc4n(CCCCCCn4c5ccccc5c5ccnc(-c6cccnc6)c54)c23)c1 [Compound 32]	KB (human oral epidermoid carcinoma cells)	IC50	13.3 µM
c1ccc2c(c1)c1ccncc1n2CCCCn1c2ccccc2c2ccncc21 [Compound 1, 1,4-bis(β-carboline-9-yl) butane]	KB (human oral epidermoid carcinoma cells)	IC50	> 300 µM
COc1ccc2c3ccnc(C)c3n(CCCCCCCn3c4cc(OC)ccc4c4ccnc(C)c43)c2c1 [Compound 17]	KB (human oral epidermoid carcinoma cells)	IC50	155 µM
Brc1ccc2c(c1)c1ccncc1n2CCCCn1c2ccc(Br)cc2c2ccncc21 [Compound 41, 1,4-bis[6-bromo-βcarboline-9-yl) butane]	KB (human oral epidermoid carcinoma cells)	IC50	> 300 µM
c1ccc2c(c1)c1ccnc(-c3ccsc3)c1n2CCCCCCCCn1c2ccccc2c2ccnc(-c3ccsc3)c21 [Compound 34]	KB (human oral epidermoid carcinoma cells)	IC50	> 300 µM
Cc1nccc2c3ccccc3n(CCCCCCCCCCn3c4ccccc4c4ccnc(C)c43)c12 [Compound 13]	KB (human oral epidermoid carcinoma cells)	IC50	> 300 µM
CC(C)c1nccc2c3ccccc3n(CCCCCCn3c4ccccc4c4ccnc(C(C)C)c43)c12 [Compound 39]	KB (human oral epidermoid carcinoma cells)	IC50	253 µM
Cc1nccc2c3ccccc3n(CCCCCn3c4ccccc4c4ccnc(C)c43)c12 [Compound 8]	KB (human oral epidermoid carcinoma cells)	IC50	> 300 µM
